# method description: Biliary excretion pharmacokinetics of Rho-123 after RT in freely moving rats
# Assay type: in vivo, Sprague-Dawley rats
# assay setup: Sprague-Dawley, rat, bile, iv, 0.2 mg/kg, biliary excretion, RT2Gy, Rho-123 0.2 mg/kg i.v. 24 hr later (sequential)
property name: AUC(0-t) (ng·h/mL)
# unit: ng·h/mL | format: bare number

What AUC(0-t) value was documented for this molecule, COC(=O)c1ccccc1-c1c2ccc(=N)cc-2oc2cc(N)ccc12 ?
1920

* * *

# method description: Organ distribution of sorafenib in rats
# Type: in vivo, Sprague-Dawley rats
# assay setup: Sprague-Dawley, rat, heart, po, 40 mg/kg
# Method: The brain, liver, heart, spleen, lung and kidney were collected and weighed. These collected samples were stored at −20 °C until analysis. Thawed organ samples were homogenized in 50% aqueous acetonitrile (sample weight:volume ratio, 1:5), and the homogenate was then centrifuged at 13000 × g for 10 min at 4 °C. The supernatant was collected, placed in brown Eppendorf tubes, and stored at −20 °C until analysis. […]
property name: concentration at 6 h (ng/g)
# unit: ng/g | format: bare number

What concentration at 6 h value was documented for this molecule, CNC(=O)c1cc(Oc2ccc(NC(=O)Nc3ccc(Cl)c(C(F)(F)F)c3)cc2)ccn1 [sorafenib, Sorafenib] ?
1200
